target: Histone deacetylase 3/Nuclear receptor corepressor 2 (HDAC3/NCoR2) (Homo sapiens, UniProt O15379); assay: Inhibition of C-terminal His-tagged recombinant human HDAC3 (1 to 428 residues)/N-terminal GST-tagged recombinant human NCoR2 (395 to 489 residues) co-expressed in baculovirus infected Sf9 cells using Boc-Lys(acetyl)-AMC as substrate incubated for 30 mins by fluorescence assay
Sequence (O15379 whole entry, the tested form may be a part): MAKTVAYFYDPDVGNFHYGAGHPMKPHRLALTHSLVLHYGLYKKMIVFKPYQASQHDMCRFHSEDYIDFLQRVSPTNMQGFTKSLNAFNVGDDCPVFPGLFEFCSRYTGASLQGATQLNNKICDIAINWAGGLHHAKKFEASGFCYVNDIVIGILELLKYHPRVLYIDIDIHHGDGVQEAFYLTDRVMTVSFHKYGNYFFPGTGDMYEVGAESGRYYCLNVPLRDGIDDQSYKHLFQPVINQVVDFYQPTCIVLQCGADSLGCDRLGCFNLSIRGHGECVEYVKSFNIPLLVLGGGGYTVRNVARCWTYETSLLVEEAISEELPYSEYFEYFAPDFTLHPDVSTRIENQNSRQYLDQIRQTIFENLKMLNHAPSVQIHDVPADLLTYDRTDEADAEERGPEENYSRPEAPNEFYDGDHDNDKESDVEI
Sequence (Q9Y618 whole entry, further chain, the tested form may be a part): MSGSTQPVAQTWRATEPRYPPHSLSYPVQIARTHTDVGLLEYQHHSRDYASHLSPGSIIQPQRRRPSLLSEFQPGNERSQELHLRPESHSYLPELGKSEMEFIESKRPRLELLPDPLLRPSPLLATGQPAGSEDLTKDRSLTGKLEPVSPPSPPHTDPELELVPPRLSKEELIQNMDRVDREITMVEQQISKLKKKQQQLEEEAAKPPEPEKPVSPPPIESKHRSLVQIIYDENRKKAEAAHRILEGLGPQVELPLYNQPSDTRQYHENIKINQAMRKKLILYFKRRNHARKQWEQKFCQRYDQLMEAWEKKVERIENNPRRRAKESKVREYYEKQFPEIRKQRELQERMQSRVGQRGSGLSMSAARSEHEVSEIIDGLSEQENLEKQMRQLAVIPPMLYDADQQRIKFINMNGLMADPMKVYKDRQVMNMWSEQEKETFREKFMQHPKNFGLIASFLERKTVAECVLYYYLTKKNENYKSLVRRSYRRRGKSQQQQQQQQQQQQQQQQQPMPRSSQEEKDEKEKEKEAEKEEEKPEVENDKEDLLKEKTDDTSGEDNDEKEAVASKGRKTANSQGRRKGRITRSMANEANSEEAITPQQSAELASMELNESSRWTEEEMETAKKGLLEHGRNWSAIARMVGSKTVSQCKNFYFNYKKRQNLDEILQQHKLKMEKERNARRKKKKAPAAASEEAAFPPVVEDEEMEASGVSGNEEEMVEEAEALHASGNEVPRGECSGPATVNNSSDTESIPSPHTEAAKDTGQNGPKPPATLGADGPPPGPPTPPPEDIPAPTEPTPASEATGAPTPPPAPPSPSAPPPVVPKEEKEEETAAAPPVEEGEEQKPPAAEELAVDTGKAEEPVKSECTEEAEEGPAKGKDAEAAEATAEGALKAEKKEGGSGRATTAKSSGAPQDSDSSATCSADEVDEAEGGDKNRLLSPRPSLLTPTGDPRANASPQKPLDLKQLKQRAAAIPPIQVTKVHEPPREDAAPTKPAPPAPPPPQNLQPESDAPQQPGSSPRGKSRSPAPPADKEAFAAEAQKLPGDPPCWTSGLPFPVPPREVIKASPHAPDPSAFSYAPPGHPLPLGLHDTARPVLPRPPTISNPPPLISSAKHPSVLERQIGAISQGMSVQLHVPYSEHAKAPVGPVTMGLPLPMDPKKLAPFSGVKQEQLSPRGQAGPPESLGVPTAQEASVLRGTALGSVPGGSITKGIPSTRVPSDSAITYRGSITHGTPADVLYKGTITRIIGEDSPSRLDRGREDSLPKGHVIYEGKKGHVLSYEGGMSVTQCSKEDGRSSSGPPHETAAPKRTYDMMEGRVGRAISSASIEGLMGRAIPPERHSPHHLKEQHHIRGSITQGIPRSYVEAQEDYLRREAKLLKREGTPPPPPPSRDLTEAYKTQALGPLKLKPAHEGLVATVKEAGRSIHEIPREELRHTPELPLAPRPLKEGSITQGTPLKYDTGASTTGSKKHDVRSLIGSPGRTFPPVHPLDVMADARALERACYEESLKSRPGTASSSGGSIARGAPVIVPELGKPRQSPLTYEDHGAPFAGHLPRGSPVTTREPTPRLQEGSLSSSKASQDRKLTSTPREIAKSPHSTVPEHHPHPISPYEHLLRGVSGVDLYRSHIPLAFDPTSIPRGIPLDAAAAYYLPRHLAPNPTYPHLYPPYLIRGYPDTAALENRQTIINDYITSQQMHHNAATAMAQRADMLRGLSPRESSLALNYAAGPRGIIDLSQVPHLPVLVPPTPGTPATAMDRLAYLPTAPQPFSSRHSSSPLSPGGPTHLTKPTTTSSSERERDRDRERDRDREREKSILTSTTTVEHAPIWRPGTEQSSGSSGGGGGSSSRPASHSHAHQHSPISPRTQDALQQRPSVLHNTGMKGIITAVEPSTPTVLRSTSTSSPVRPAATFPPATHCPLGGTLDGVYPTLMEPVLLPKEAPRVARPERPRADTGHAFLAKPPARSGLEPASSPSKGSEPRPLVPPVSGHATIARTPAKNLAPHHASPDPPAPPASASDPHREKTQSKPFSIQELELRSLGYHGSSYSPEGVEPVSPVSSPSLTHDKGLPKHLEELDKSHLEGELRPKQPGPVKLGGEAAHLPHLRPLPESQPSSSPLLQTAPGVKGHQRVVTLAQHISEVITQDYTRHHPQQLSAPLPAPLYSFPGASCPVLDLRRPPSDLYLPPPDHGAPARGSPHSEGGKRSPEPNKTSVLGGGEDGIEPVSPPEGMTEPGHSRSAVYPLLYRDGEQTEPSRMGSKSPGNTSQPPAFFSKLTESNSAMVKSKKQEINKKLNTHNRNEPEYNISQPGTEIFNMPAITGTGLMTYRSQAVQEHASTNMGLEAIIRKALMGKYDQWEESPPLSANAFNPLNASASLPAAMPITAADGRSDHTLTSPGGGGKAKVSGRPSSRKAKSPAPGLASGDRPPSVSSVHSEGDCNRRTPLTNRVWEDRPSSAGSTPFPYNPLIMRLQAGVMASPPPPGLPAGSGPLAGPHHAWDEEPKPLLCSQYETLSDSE
pIC50: −log10 of the molar value.
recordedMetric: pIC50

| molecule | boundOperator | reading |
| --- | --- | --- |
| O=C1NC(=O)/C(=C\c2ccc(OCC(=O)N3N=C(c4ccc(F)cc4)CC3c3ccc(Cl)c(Cl)c3)cc2)S1 (stereo not drawn) | = | 4.96 |
| O=C1NC(=O)/C(=C\c2ccc(OCC(=O)N3N=C(c4ccc(F)cc4)CC3c3ccco3)cc2)S1 (stereo not drawn) | < | 4.30 |
| O=C1NC(=O)/C(=C\c2ccc(OCC(=O)N3N=C(c4ccccc4)CC3c3ccc(Cl)c(Cl)c3)cc2)S1 (stereo not drawn) | = | 5.04 |

The measurements presented in this section are drawn from ChEMBL document CHEMBL5120742.
